- assay.details: RP, Merck Supelco Ascentis Express C18, 100 × 2.1 mm, 2 µm, 40 °C, 0.2 mL/min, estimated dead time 1.1 min; A: water + 0.1% formic acid, pH 3; B: acetonitrile + 0.1% formic acid, pH 3; gradient (min/%B) 0/5 2/5 17/99.9 20/99.9
- experimental.setup: stereoisomer not certain
property: LC retention time (min)

Known LC retention time results, listed for orientation:
O=C([O-])c1c[nH]c(=O)[nH]c1=O [URACIL 5-CARBOXYLATE] = 1.39
Nc1nc2nc[nH]c2c(=O)[nH]1 = 1.36
CC1OC(n2cnc3c(N)ncnc32)C(O)C1O (stereo not given) = 1.92

(I) N[C@@H](Cc1ccc(O)c([N+](=O)[O-])c1)C(=O)O
(II) O=C(O)C(O)C(O)C(O)C(O)COP(=O)(O)O (stereo not given) [6-PHOSPHOGLUCONATE]
Field: lower LC retention time | Options: I / II Label of pick, please. II
(II: 1.32 min, I: 2.72 min)

(I) CSCCC(O)C(=O)O (stereo not given) [2-HYDROXY-4-(METHYLTHIO)BUTANOATE]
(II) CC(O)(CCO)CC(=O)[O-] (stereo not given) [MEVALONATE]
(III) CCCCCCCCC=CCCCCCCCCCCCCCC(=O)[O-] [NERVONATE]
(IV) CC(CCC(=O)O)C1CCC2C3C(O)CC4CC(O)CCC4(C)C3CC(O)C12C (stereo not given) [CHOLATE]
(V) O=Cc1ccc(O)cc1 [4-HYDROXYBENZALDEHYDE]
Ordering criterion: LC retention time; begin with the maximum. Rank them, then answer with their labels in that order. III, IV, V, I, II
(III: 18.7 min, IV: 10.3 min, V: 5.46 min, I: 3.75 min, II: 1.57 min)

(1) CCCCCCCCC=CCCCCCCCC(=O)O [ELAIDATE]
(2) CCCCCCCCC(=O)[O-] [NONANOATE]
(3) NC(Cc1cc(I)c(Oc2ccc(O)c(I)c2)c(I)c1)C(=O)O (stereo not given)
I would appreciate it if you could sort these 3 compounds by LC retention time, starting from the smallest number. Rank them, then answer with their labels in that order. 3, 2, 1

(A) Nc1nc2ncc(CNc3ccc(C(=O)NC(CCC(=O)O)C(=O)O)cc3)nc2c(=O)[nH]1 (stereo not given) [FOLATE]
(B) Cn1cnc2c(ncn2C2OC(CO)C(O)C2O)c1=N (stereo not given)
(C) O=C(C=Cc1ccc(O)c(O)c1)OC(Cc1ccc(O)c(O)c1)C(=O)O (stereo not given) [ROSMARINATE]
(D) CC(=O)OCC(=O)C1CCC2C3CCC4=CC(=O)CCC4(C)C3CCC12C (stereo not given) [DEOXYCORTICOSTERONE ACETATE]
(E) Nc1ccccc1O
Ordering criterion: LC retention time; begin with the maximum. Rank them, then answer with their labels in that order. D, C, A, B, E
(D: 12.2 min, C: 6.88 min, A: 4.69 min, B: 2.01 min, E: 1.34 min)

* * *

- assay.details: RP, Merck Supelco Ascentis Express C18, 100 × 2.1 mm, 2 µm, 40 °C, 0.2 mL/min, estimated dead time 1.1 min; A: water + 0.1% formic acid, pH 3; B: acetonitrile + 0.1% formic acid, pH 3; gradient (min/%B) 0/5 2/5 17/99.9 20/99.9
- experimental.setup: stereoisomer not certain
property: LC retention time (min)

Known LC retention time results, listed for orientation:
O=C(O)CNC(=O)c1ccccc1 [HIPPURATE] = 5.12
O=C([O-])Cc1ccccc1 [PHENYLACETATE] = 4.08
O=C(O)C(O)Cc1ccc(O)cc1 (stereo not given) [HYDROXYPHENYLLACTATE] = 5.43

(I) CC(=O)NC(Cc1c[nH]c2ccccc12)C(=O)O (stereo not given)
(II) CC1OC(n2cnc3c(N)ncnc32)C(O)C1O (stereo not given)
Could you kindly indicate whether I or II has the higher LC retention time value? Label of pick, please. I
